Value source: PubChem BioAssay (NCI)

# assay-summary: NCI Yeast Anticancer Drug Screen. Data for the cln2 rad14 strain (AID 165);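 note: 0% = growth equal to vehicle treated cultures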
# test-conditions: S. cerevisiae cln2 rad14 strain, at 50.0 µM, hits give high values
The panel holds about 79,000 compounds, 15% with a hit somewhere; the sample as a whole holds those more often.
assay-metric: growth inhibition (%)
Reply with just the number (in %).

Check the records and state growth inhibition for "C/C(=N\N=C(\[Se])N(C)C)c1ccccn1"
89.3

***
Check the records and state growth inhibition for "S=C(Nc1ccccc1)Nc1ccc(N(CCCl)CCCl)cc1"
-40.8

Check the records and state growth inhibition for "NC(=NC(c1ccccc1)c1ccccc1)N[N+](=O)[O-]"
2.95

Check the records and state growth inhibition for C=COC(=O)NC(C(=O)O)C(C)CC (stereo not drawn)
24.9

Check the records and state growth inhibition for "C1=C[N-]c2c3c(ccc2=C1)=CC=C[N-]3.C1=C[N-]c2c3c(ccc2=C1)=CC=C[N-]3.[Cl][Ru][Cl]"
44.4

Check the records and state growth inhibition for "S=P(NNc1ccccc1)(NNc1ccccc1)c1ccc(Cl)cc1"
82.3

Check the records and state growth inhibition for "CCCCC(=O)O.[Ni]"
-32
